Attribution: patent US20170210813A1

# system-name: T1, hPDGFRb.mmh (human, UniProt P09619 33-531)
# T1 construct: Soluble monomeric construct; also called soluble human PDGFR-beta.mmh
# T1 sequence (P09619 other isoform, or with tags, fused parts or gaps): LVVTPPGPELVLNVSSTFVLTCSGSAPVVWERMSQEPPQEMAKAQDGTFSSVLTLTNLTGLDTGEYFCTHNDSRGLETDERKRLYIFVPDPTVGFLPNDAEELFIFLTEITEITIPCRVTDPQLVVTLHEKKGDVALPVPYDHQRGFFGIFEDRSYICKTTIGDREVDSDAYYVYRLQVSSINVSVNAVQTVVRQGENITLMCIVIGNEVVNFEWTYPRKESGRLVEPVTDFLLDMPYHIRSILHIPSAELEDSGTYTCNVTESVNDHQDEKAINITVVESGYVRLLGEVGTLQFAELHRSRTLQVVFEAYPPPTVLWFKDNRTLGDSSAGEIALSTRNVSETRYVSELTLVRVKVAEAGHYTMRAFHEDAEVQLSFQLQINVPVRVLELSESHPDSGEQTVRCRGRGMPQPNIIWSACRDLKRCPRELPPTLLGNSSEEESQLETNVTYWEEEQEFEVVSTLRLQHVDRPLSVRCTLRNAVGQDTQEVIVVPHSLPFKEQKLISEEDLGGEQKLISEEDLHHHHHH
# protocol-summary: blocking ELISA, biot-hPDGFRb.mmh to coated PDGF-BB
readout-name: IC50 (pM)
Numbers only here, please. The scale is pM.

// query Specify reported IC50 for the binder shown: H1M3361N (antibody, mouse IgG1, V domains shown, mouse IgG1 Fc (H1M prefix)) VH: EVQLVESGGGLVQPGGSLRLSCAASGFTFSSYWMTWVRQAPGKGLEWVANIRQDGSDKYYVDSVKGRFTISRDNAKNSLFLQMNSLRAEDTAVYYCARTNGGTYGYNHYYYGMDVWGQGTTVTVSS VL: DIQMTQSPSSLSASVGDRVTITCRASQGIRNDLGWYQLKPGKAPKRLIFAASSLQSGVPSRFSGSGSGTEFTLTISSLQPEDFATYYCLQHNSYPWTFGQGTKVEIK
// result 100

// query For H4H3094P (antibody, human IgG4, V domains shown, also called H4H3394P) VH: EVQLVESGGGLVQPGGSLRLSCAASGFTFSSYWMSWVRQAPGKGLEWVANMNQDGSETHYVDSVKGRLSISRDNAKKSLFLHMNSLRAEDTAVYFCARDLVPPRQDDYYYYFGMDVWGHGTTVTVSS VL: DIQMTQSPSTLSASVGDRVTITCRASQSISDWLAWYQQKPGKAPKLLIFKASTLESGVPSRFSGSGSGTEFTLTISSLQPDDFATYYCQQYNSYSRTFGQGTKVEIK , write its IC50.
// result 120

// query Specify IC50 for H4H3104S (antibody, human IgG4, V domains shown, human IgG4 Fc (H4H prefix)) VH: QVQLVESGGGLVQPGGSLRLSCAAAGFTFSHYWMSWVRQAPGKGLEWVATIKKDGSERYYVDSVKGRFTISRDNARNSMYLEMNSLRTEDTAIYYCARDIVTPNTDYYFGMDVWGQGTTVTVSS VL: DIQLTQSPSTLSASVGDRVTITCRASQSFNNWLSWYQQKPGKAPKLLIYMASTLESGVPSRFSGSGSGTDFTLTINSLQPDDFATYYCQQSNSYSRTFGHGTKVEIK and stop.
// result 380

// query Please report IC50 for the following binder: H2M3368N (antibody, V domains shown, mouse Fc (H2M prefix; isotype not spelled out)) VH: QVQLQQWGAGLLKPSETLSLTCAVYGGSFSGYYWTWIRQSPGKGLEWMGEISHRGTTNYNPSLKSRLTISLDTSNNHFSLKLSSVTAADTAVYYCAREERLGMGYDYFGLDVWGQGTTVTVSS VL: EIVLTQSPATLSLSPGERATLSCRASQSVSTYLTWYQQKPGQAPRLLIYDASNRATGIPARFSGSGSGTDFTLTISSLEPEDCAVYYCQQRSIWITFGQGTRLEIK
// result 130

// query Look up and state reported IC50 for H4H3106S (antibody, human IgG4, V domains shown, human IgG4 Fc (H4H prefix)) VH: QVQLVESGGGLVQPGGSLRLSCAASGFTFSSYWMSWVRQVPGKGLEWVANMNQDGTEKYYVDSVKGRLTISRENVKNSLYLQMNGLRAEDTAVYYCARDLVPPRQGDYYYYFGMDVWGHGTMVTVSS VL: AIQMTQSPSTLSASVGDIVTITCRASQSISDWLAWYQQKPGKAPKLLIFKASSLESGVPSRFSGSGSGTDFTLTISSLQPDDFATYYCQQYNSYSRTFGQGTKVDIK
// result 170
